All values here come from the supplement of paper PMC8728848.

- target: GlcNAc(b1-4)GlcNAc(b1-4)GlcNAc(b1-4)GlcNAc(b1-4)GlcNAc
- assay_info: glycan array binding signal (z-score within array); higher = stronger binding
- measurement_setup: glycan notation: IUPAC condensed, linker removed
The entries come from a sample that favours the strongest signals as a whole.
Please respond with reported glycan array binding signal (z-score) for every item in the list.
Give bare numbers.

// for each binder below, give its glycan array binding signal (z-score)
1. SAOUHSC 02783 (Staphylococcus aureus), Q5HD69 (protein) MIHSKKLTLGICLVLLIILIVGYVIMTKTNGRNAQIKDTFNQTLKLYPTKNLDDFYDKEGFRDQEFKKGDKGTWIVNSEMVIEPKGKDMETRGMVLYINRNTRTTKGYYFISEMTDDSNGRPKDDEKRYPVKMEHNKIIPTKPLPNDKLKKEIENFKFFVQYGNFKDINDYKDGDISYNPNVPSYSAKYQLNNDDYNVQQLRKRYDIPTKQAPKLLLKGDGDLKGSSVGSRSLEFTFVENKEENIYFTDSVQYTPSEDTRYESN
2. Ecp6 (Cladosporium fulvum), B3VBK9 (protein) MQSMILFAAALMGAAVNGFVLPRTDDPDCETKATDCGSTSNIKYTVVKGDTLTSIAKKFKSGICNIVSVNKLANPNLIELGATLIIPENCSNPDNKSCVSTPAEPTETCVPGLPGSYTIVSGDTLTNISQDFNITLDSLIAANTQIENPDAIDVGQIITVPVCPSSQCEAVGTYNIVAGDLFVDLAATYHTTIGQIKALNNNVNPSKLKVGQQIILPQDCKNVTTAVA
3. Epa12 (Candida glabrata) (protein) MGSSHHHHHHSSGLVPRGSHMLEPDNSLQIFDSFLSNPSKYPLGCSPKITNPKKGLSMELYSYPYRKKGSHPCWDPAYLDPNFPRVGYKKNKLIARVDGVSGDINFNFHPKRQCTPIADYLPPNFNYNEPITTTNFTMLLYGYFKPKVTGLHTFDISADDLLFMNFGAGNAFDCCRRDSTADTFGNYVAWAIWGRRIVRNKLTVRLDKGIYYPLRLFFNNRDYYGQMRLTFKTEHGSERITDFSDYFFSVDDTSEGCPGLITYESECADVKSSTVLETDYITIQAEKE

[-0.476, 13, -0.032]
